Test system: HL-60(TB) leukemia
measurement.notes: NCI tumour cell line growth inhibition, 48 h
Below: a set of entries, each annotated with reported TGI.

| compound | TGI |
| --- | --- |
| CC1CC/C(=C\c2ccc(F)cc2)C2=C1C(c1ccc(F)cc1)N1C(=O)CSC1=N2 (stereo unspecified) | > 100 µM |
| C/C(CC(=O)NCCc1ccccc1)=N\NS(=O)(=O)c1ccc(C)cc1 | > 100 µM |
| O=C1NC(=O)c2ccccc2/C1=C/c1ccc2c(c1)OCO2 | > 100 µM |
| CCCCNNC(=O)c1ccc(Br)cc1 | > 50 µM |
| CCN1C/C(=C\c2ccc(Cl)cc2)c2nc(N)c(C#N)c(-c3ccc(Cl)cc3)c2C1 | > 100 µM |
| c1nc(NCCc2cnc[nH]2)c2[nH]cnc2n1 | > 100 µM |
| CSC(=S)Nc1cc(C)cc(C)n1 | > 31.6 µM |
| COC(=O)[C@H](Cc1c[nH]c2ccccc12)NP(=O)(OCCC#N)OCC1OC(n2cc(C)c(=O)[nH]c2=O)CC1N=[N+]=[N-] (stereo partly specified) | > 100 µM |

Query (compound): O=C(NNC(=S)Nc1ccccc1)c1nsc2ccccc12 ; field requested: TGI
53.8 µM

Query (compound): O=C1CCCNn2c(nc3ncccc3c2=O)N1 ; field requested: TGI
> 100 µM

Query (compound): O=[N+]([O-])c1cccc(/C=N/NC2=CS(=O)(=O)C=C2)c1 ; field requested: TGI
> 100 µM

---

Below: a set of entries, each annotated with reported GI50.
System: BT-549 breast
measurement.notes: NCI tumour cell line growth inhibition, 48 h

Some molecules with recorded GI50:
| sample.smiles | GI50 |
| --- | --- |
| Fc1ccc(-c2ncn(C3CCNCC3)c2-c2ccnc(Oc3ccc4c(c3)OCO4)n2)cc1 | > 21.3 µM |
| N#Cc1nc(-c2ccc(F)cc2)oc1S(=O)(=O)N1CCCCC1 | 2.24 µM |
| CCCCNNC(=O)c1ccc(Br)cc1 | 17 µM |

Please find the next molecule below.
Query (molecule): CN1CCN(Cc2c[nH]c3c2C(=O)c2c(c(O)c4ccccc4c2O)C3=O)CC1 ; field requested: GI50
18.6 µM

---

Tested on: MALME-3M melanoma
measurement.notes: NCI tumour cell line growth inhibition, 48 h
readout.name: TGI (µM)
Give the number; µM is assumed, so skip it.

Some molecules with recorded TGI:
| molecule | readout.name | value.reported |
| --- | --- | --- |
| CC(C)(C)C1CCC2c3c([nH]c4ccccc34)C3C(=O)N(c4ccc(C#N)cc4)C(=O)C3C2C1 (centres undefined) | TGI | 37.5 |
| CCOC(=O)/C(C(N)=O)=C(\O)C(=O)/C(Br)=C(\O)c1ccccc1 | TGI | 29.2 |
| C=C1CC(CC)(CCN2C(=O)c3ccccc3C2=O)OC1=O (centres undefined) | TGI | 27.3 |
| O=[N+]([O-])c1cc[n+]([O-])c2ccccc12 | TGI | 1.12 |
| C=C(C)[C@@H]1CCC=C2CC[C@]3(C)[C@H](CC[C@@H]4[C@@]5(C)CCCNC(C)(C)[C@@H]5CC[C@]43C)[C@H]21 | TGI | 3.74 |

Query (molecule): COc1cc(/C=C/c2ccc(C)cc2)cc(OC)c1OC ; field requested: TGI
10.5

---

Tested on: UO-31 renal
measurement.notes: NCI tumour cell line growth inhibition, 48 h; in the data active = GI50 below about 0.43 µM; inactive = the rest
Bench note: report the call from active, inactive

| compound | qualitative.label |
| --- | --- |
| COc1ccccc1/C=C1\COc2ccc(-c3ccccc3)cc2C1=O | inactive |
| C/C(=C\c1ccn(-c2ccccc2N)n1)[C@@H]1C[C@@H]2O[C@]2(C)CCC[C@H](C)[C@H](O)[C@@H](C)C(=O)C(C)(C)[C@@H](O)CC(=O)O1 | active |
| [2H]C([2H])([2H])NC(=O)c1nnc(NC(=O)C2CC2)cc1Nc1cccc(-c2ncn(C)n2)c1OC | inactive |
| CNC(=O)NCC1OC(n2cnc3c(NC(=O)Nc4ccccc4)ncnc32)C(O[Si](C)(C)C(C)(C)C)C1O[Si](C)(C)C(C)(C)C (stereo not given) | inactive |
| CN(C)C(=O)Nc1nc2cc(Cl)c(Cl)cc2[nH]1 | inactive |
| CCC(=O)N1C/C(=C/c2ccc(Cl)cc2)C(=O)/C(=C/c2ccc(Cl)cc2)C1 | inactive |
| O=C1CCc2c(sc3[nH]c(=S)n(-c4cc(C(F)(F)F)cc(C(F)(F)F)c4)c(=O)c23)C1 | active |
| COc1cc(-c2nc3ccccc3s2)ccc1OCCCCOc1cc2c(cc1OC)C(=O)N1CCC[C@H]1C=N2 | inactive |

Answer briefly: the call reported for CCC1(O)CC(OC2CC(N(C)C)C(OC3CC(O)C(OC4OC(C)C(=O)C=C4N)C(C)O3)C(C)O2)c2c(cc3c(c2O)C(=O)c2c(O)cccc2C3=O)C1C(=O)OC (stereo not given) in this assay.
active

Answer briefly: the call reported for Nc1ccn(C2CC(F)C(CO)O2)c(=O)n1 (stereo not given) in this assay.
inactive

Answer briefly: the call reported for C=C(C)[C@@H]1CCC=C2CC[C@]3(C)[C@H](CC[C@@H]4[C@@]5(C)CCCNC(C)(C)[C@@H]5CC[C@]43C)[C@H]21 in this assay.
inactive

Answer briefly: the call reported for COC(=O)c1c2c(c(C)[n+]([O-])c1C)C(=O)C=C(NCc1ccccc1)C2=O in this assay.
inactive

Answer briefly: the call reported for Cc1ccc(/C=C/c2c(C(=O)/C=C/c3ccccc3)c(C)nc3ccccc23)cc1 in this assay.
inactive

Answer briefly: the call reported for COc1ccc(C(=O)Cn2c(C(=O)c3ccccc3)nc3ccccc32)cc1 in this assay.
inactive

Answer briefly: the call reported for CCC[CH2][Sn]([CH2]CCC)([O]C(=O)c1cc(OC)c(OC)cc1OC)[O][Sn]([CH2]CCC)([CH2]CCC)[O]C(=O)c1cc(OC)c(OC)cc1OC in this assay.
inactive

---

Tested on: HCT-15 colon
measurement.notes: NCI tumour cell line growth inhibition, 48 h
readout.name: TGI

| molecule | target.under.test | TGI |
| --- | --- | --- |
| CO/N=C(\COc1ccc2c(=O)c3ccccc3oc2c1)c1ccccc1 | HCT-15 colon | > 100 µM |
| Cc1c(C(=O)c2ccc(N)c3ccccc23)c2ccccc2n1CCN1CCOCC1 | HCT-15 colon | > 95.7 µM |
| CC1CC/C(=C\c2ccc(F)cc2)C2=C1C(c1ccc(F)cc1)N1C(=O)CSC1=N2 (centres undefined) | HCT-15 colon | > 100 µM |

Please find the next molecule below.
Query (molecule): Cc1cc(-n2nnc(C(=O)O)c2-c2ccccc2)c2ccc(Cl)cc2n1 ; field requested: TGI
> 100 µM

---

Below: a set of entries, each annotated with reported TGI.
Test system: NCI-H23 lung
measurement.notes: NCI tumour cell line growth inhibition, 48 h

Some compounds with recorded TGI:
| sample.smiles | TGI |
| --- | --- |
| O=c1cccccc1[O-].O=c1cccccc1[O-].O=c1cccccc1[O-].[Eu+3] | > 100 µM |
| Cc1ccc(S(=O)(=O)Oc2ccc3c4c(c(=O)oc3c2)CCCCCC4)cc1 | > 100 µM |
| N#Cc1c(-c2ccc(Cl)cc2)cc(-c2ccc(Nc3ccnc4cc(Cl)ccc34)cc2)[nH]c1=O | > 75.9 µM |

Record C[C@]12CC[C@H]3[C@@H](CCC4=CC(=O)C=C[C@@]43OC(=O)C(F)(F)F)[C@@H]1CCC2=O : what is its TGI with NCI-H23 lung?
> 100 µM

---

Tested on: MDA-MB-231 breast
measurement.notes: NCI tumour cell line growth inhibition, 48 h
Below: a set of entries, each annotated with reported TGI.

| molecule | TGI |
| --- | --- |
| CCCCC(SC(=S)N1CCCC1)C(=O)Nc1nc(CC(=O)OCC)cs1 (configuration not stated) | > 100 µM |
| Nc1ccn(C2CC(F)C(CO)O2)c(=O)n1 (configuration not stated) | > 100 µM |
| CCOc1ccc2c(-c3ccnc(Nc4cc(OC)cc(C(F)(F)F)c4)n3)cnn2n1 | > 22.5 µM |
| O=C(O)C(Cc1cnc[nH]1)N1C(=O)c2ccccc2C1=O (configuration not stated) | > 100 µM |
| CN(C)C(=O)Nc1nc2cc(Cl)c(Cl)cc2[nH]1 | > 100 µM |

Record C=CO/N=[N+](\[O-])N(CC)CC : what is its TGI with MDA-MB-231 breast?
> 100 µM

Record N#CC(CCN1CCC(Nc2ccccc2)(c2nnnn2C2CCCCC2)CC1)(c1ccccc1)c1ccccc1 : what is its TGI with MDA-MB-231 breast?
> 100 µM

Record N#C/C(=C/C=C/c1ccco1)C(N)=O : what is its TGI with MDA-MB-231 breast?
> 10 µM

Record COc1ccc(C2C3=C(N=C4SC(C(C)=O)=C(C)N42)c2ccccc2CC3)cc1 (configuration not stated) : what is its TGI with MDA-MB-231 breast?
> 100 µM
